Target protein (sequence): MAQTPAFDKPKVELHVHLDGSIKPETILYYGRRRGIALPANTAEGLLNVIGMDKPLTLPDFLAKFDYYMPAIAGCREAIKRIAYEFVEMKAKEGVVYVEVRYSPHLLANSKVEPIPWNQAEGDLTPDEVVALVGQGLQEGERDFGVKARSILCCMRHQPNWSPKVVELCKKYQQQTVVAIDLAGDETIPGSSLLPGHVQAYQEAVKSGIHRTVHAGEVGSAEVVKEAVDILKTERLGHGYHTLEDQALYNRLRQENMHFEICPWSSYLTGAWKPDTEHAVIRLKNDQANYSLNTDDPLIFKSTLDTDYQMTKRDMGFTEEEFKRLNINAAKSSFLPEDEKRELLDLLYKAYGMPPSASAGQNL
Counter-ions that a name gives are not always drawn.
test readout: IC50

# compound, IC50
data = [
    ("CCOc1ccc(-c2nc3c(CC[C@H]([C@H](C)O)n4cnc(C(N)=O)c4)cccc3o2)cc1 [Compound E0023, hydrochloride]", "< 20 nM"),
]

Q. Give the measured IC50 for C[C@H](O)[C@@H](CCc1cccc2nc(-c3cccs3)oc12)n1cnc(C(N)=O)c1 [Compound E0028, hydrochloride]
A. < 20 nM
